experiment: Plasma half life in dog when administered 1 mg/kg perorally; type: ADME, organism-based, Canis lupus familiaris; parameters: dose 1 mg/kg, route oral; conditions: po
The following compounds are shown together with reported half-life values.

MOLECULE_SMILES	half-life / h
CC(C)(C1CC1)[C@@H](O)C(=O)N1CC[C@H]1C(=O)NCc1cc(Cl)ccc1CN	4.7
CC(C)(C)[C@@H](O)C(=O)N1CCC[C@H]1C(=O)NCc1cc(Cl)ccc1CN	5.4
CC(C)[C@@H](O)C(=O)N1CCC[C@H]1C(=O)NCc1cc(Cl)ccc1CN	4.2
CC(C)(C)[C@@H](O)C(=O)N1CC[C@H]1C(=O)NCc1cc(Cl)ccc1CN	3.4

###

test: Area under the curve in dog when administered 1 mg/kg perorally; format: ADME, organism-based, Canis lupus familiaris; design: dose 1 mg/kg, route oral; conditions: in vivo, po
Rule for this label: 1.0 means AUC is less than 5 µM·h; 0.0 means AUC is at least 5 µM·h.

MOLECULE_SMILES	ASSIGNED_CATEGORY
C[C@](O)(C(=O)N1CCC[C@H]1C(=O)NCc1cc(Cl)ccc1CN)c1ccccc1	0.0
CC(C)(C)[C@@H](O)C(=O)N1CC[C@H]1C(=O)NCc1cc(Cl)ccc1CN	1.0
C[C@@](O)(C(=O)N1CCC[C@H]1C(=O)NCc1cc(Cl)ccc1CN)c1ccccc1	0.0
CC(C)(C)[C@@H](O)C(=O)N1CCC[C@H]1C(=O)NCc1cc(Cl)ccc1CN	0.0
CC(C)(C1CC1)[C@@H](O)C(=O)N1CC[C@H]1C(=O)NCc1cc(Cl)ccc1CN	0.0
NCc1ccc(Cl)cc1CNC(=O)[C@@H]1CCCN1C(=O)[C@H](O)C1CCCCC1	1.0
NCc1ccc(Cl)cc1CNC(=O)[C@@H]1CCCN1C(=O)CO	0.0
NCc1ccc(Cl)cc1CNC(=O)[C@@H]1CCCN1C(=O)[C@H](O)c1ccccc1	1.0

###

experiment: Plasma half life in dog when administered 1 mg/kg perorally; assay type: ADME, organism-based, Canis lupus familiaris; set-up: dose 1 mg/kg, route oral; settings: po

MOLECULE_SMILES	half-life
NCc1ccc(Cl)cc1CNC(=O)[C@@H]1CCCN1C(=O)[C@H](O)c1ccccc1	2 h
C[C@](O)(C(=O)N1CCC[C@H]1C(=O)NCc1cc(Cl)ccc1CN)c1ccccc1	3.1 h
NCc1ccc(Cl)cc1CNC(=O)[C@@H]1CCCN1C(=O)[C@H](O)C1CCCCC1	2 h
C[C@@](O)(C(=O)N1CCC[C@H]1C(=O)NCc1cc(Cl)ccc1CN)c1ccccc1	3.4 h
NCc1ccc(Cl)cc1CNC(=O)[C@@H]1CCCN1C(=O)CO	13 h

###

test system: Rattus norvegicus; assay: Percent free rat plasma protein binding after administration of the compound; assay type: functional
Each entry gets class 0 if its Activity stays under 30%, and class 1 if its Activity is 30% or above.

MOLECULE_SMILES	ASSIGNED_CATEGORY
CC(C)(C)[C@@H](O)C(=O)N1CCC[C@H]1C(=O)NCc1cc(Cl)ccc1CN	class 1
CC(C)(C1CC1)[C@@H](O)C(=O)N1CC[C@H]1C(=O)NCc1cc(Cl)ccc1CN	class 0
NCc1ccc(Cl)cc1CNC(=O)[C@@H]1CCCN1C(=O)CO	class 0
CC(C)(C)[C@@H](O)C(=O)N1CC[C@H]1C(=O)NCc1cc(Cl)ccc1CN	class 0
NCc1ccc(Cl)cc1CNC(=O)[C@@H]1CCCN1C(=O)[C@H](O)C1CCCCC1	class 1
C[C@@](O)(C(=O)N1CCC[C@H]1C(=O)NCc1cc(Cl)ccc1CN)c1ccccc1	class 0
CC(C)[C@@H](O)C(=O)N1CCC[C@H]1C(=O)NCc1cc(Cl)ccc1CN	class 1
